ASSAY METHOD TEXT: Cmax in mouse at 10 mg/kg, po administered as single dose by LC-MS analysis
Format: ADME, organism-based
Parameters: dose 10 mg/kg, route oral
APPLIED CONDITIONS: in vivo
MEASUREMENT TYPE: Cmax (ng/mL)
Provide the reading as a plain figure in ng/mL.

Noted for `Cc1ccccc1-n1nnc(C(=O)Nc2ccc3ccccc3n2)c1C` : its Cmax reads 2200

###

Provide the reported log10(IC50) of each item.
ASSAY METHOD TEXT: Inhibition of Wnt3a activated Wnt/beta-catenin signaling (unknown origin) expressed in HEK293 cells harboring TCF/LEF-responsive luciferase preincubated with cells followed by Wnt3a addition and measured after 24 hrs by luciferase reporter gene assay
Assay type: cell-based
APPLIED CONDITIONS: Homo sapiens
Response schema: value (number) is log10 of IC50 in units of nM.

Noted for `Cc1ccccc1-n1nnc(C(=O)Nc2ccc3cc(CN4CCCCC4)ccc3n2)c1C` : its log10(IC50) reads 3.08

Noted for `Cc1cccc(-n2nnc(C(=O)Nc3ccc4ccccc4n3)c2C)c1C` : its log10(IC50) reads 2.15

Noted for `Cc1c(C(=O)Nc2ccc3ccccc3n2)nnn1-c1cccc2ccccc12` : its log10(IC50) reads 3.74

Noted for `Cc1ccccc1-n1nnc(C(=O)Nc2ccc3ccccc3c2)c1C` : its log10(IC50) reads 3.69

Noted for `COc1ccccc1-n1nnc(C(=O)Nc2ccc3ccccc3n2)c1C` : its log10(IC50) reads 1.26

Noted for `Cc1c(C(=O)Nc2ccc3ccccc3n2)nnn1-c1ccccc1-c1ccccc1` : its log10(IC50) reads 2.59

Noted for `Cc1ccccc1-n1nnc(C(=O)Nc2ccc3cc(CN4CCOCC4)ccc3n2)c1C` : its log10(IC50) reads 3.11

Noted for `Cc1c(C(=O)Nc2ccc3ccccc3n2)nnn1-c1ccccc1N1CCOCC1` : its log10(IC50) reads 3.28

Noted for `Cc1c(C(=O)Nc2ccc3ccccc3n2)nnn1-c1ccccc1F` : its log10(IC50) reads 0.08

Noted for `Cc1c(C(=O)Nc2ccc3ccccc3n2)nnn1-c1ccccc1C#N` : its log10(IC50) reads 1.53

Noted for `Cc1ccccc1-n1nnc(C(=O)Nc2ccc3cc(CN4CCSCC4)ccc3n2)c1C` : its log10(IC50) reads 2.36

Noted for `CC(=O)c1ccccc1-n1nnc(C(=O)Nc2ccc3ccccc3n2)c1C` : its log10(IC50) reads 3.94

Noted for `Cc1ccccc1-n1nnc(C(=O)Nc2ccc3ccccc3n2)c1C` : its log10(IC50) reads 0.61

Noted for `CCc1c(C(=O)Nc2ccc3ccccc3n2)nnn1-c1ccccc1F` : its log10(IC50) reads 0.67

Noted for `Cc1ccc(-n2nnc(C(=O)Nc3ccc4ccccc4n3)c2C)c(C)c1` : its log10(IC50) reads 2.43

Noted for `CC(C)c1c(C(=O)Nc2ccc3ccccc3n2)nnn1-c1ccccc1F` : its log10(IC50) reads 1.40

Noted for `Cc1c(C(=O)Nc2ccc3ccccc3n2)nnn1-c1ccccc1Br` : its log10(IC50) reads 0.88

Noted for `Cc1ccccc1-n1nnc(C(=O)Nc2ccc3cc(Br)ccc3n2)c1C` : its log10(IC50) reads 2.92

Noted for Cc1cc(/C=C/c2ccc3cc(N(C)C)ccc3[n+]2C)c(C)n1-c1ccccc1 [PYRVINIUM] : its log10(IC50) reads 2.88

###

ASSAY METHOD TEXT: Inhibition of Wnt3a activated Wnt/beta-catenin signaling (unknown origin) expressed in HEK293 cells harboring TCF/LEF-responsive luciferase preincubated with cells followed by Wnt3a addition and measured after 24 hrs by luciferase reporter gene assay
Assay type: cell-based
APPLIED CONDITIONS: Homo sapiens
MEASUREMENT TYPE: IC50

Noted for `Cc1c(C(=O)Nc2ccc3ccccc3n2)nnn1-c1ccccc1C(N)=O` : its IC50 reads > 10 µM

Noted for `Cc1cccc(-n2nnc(C(=O)Nc3ccc4ccccc4n3)c2C)c1` : its IC50 reads > 10 µM

Noted for `Cc1ccc(-n2nnc(C(=O)Nc3ccc4ccccc4n3)c2C)cc1` : its IC50 reads > 10 µM

Numbers sourced from ChEMBL document CHEMBL4371095.
